system_tested: HER2 expressed on the surface of cells (human, UniProt P04626 23-1255)
test_summary: cell-based or functional assay
observation_type: growth inhibition span (percentage of cells killed), BT474 cells (%)
Reply numerically in %, unit not repeated.

Worked cases, answers included:
Variant 14021 (antibody, name in Kabat numbering, V domains shown, also called v14021) VH: EVQLVESGGGLVQPGGSLRLSCAASGFTFQDYTMDWVRQAPGKGLEWVGDVNPNSGGSIYNQRFKGRFTFSVDRSWNTLYLQMNSLRAEDTAVYYCARNLGPSFYFDYWGQGTLVTVSS VL: DIQMTQSPSSLSASVGDRVTITCKASQDVSIGVAWYQQKPGKAPKLLIWSASYRYTGVPSRFSGSGSGTDFTLTISSLQPEDFATYYCQQYYIYPYTFGQGTKVEIKR | 33
Variant 14023 (antibody, name in Kabat numbering, V domains shown, also called v14023) VH: EVQLVESGGGLVQPGGSLRLSCAASGFTFQDYTMDWVRQAPGKGLEWVGDVNPNSGGSIYNQRFKGRFTFSVDRSWNTLYLQMNSLRAEDTAVYYCARNLGPWFYFDYWGQGTLVTVSS VL: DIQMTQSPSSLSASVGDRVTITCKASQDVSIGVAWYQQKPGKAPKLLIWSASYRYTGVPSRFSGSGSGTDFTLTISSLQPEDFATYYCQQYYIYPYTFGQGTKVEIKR | 35

We next turn to a different binder, shown below.
[in] Input Variant 14019 (antibody, name in Kabat numbering, V domains shown, also called v14019) VH: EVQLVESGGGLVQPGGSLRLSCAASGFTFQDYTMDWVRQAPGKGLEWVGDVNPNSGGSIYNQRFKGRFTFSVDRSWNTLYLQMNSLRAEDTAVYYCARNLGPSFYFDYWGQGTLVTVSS VL: DIQMTQSPSSLSASVGDRVTITCKASQDVSIGVAWYQQKPGKAPKLLIYSASYRYTGVPSRFSGSGSGTDFTLTISSLQPEDFATYYCQQYYIYPYTFGQGTKVEIKR , output reported growth inhibition span (percentage of cells killed), BT474 cells.
[out] 32

The reported measurements were obtained from patent US20180273635A1.
